assayOverview: mn = molality of the nth substance listed, in mol/kg
conditionDescription: 298.15 K; 101 kPa; Liquid; Linear variable-path acoustic interferometer; m2 = 0
measurementName: speed of sound (m/s)

>>> datavalue("C1CCOC1 [tetrahydrofuran] + O")
1280.2
>>> datavalue("CO [methanol] + O")
1103.8
>>> datavalue("CCO [ethanol] + O")
1142.1
>>> datavalue("CN(C)C=O [dimethylformamide] + O")
1460.2
>>> datavalue("CC#N [acetonitrile] + O")
1281.3
>>> datavalue("CCCCO [butan-1-ol] + O")
1241.6
>>> datavalue("C1COCCO1 [1,4-dioxane] + O")
1346.3
>>> datavalue("CCCO [propan-1-ol] + O")
1207
